Molecular target: SALL4 ZNF1-2 (Homo sapiens, UniProt Q96SW2+Q9UJQ4)
Construct: IKZF1Δ, IKZF2Δ, GSPT1 and SALL4 ZnF1-2 were subcloned; expressed in transfected cells; host or cells: Flp-In 293
Sequence (Q9UJQ4 378-438 limits assumed): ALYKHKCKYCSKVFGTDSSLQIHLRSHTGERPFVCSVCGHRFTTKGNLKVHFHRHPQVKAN
Sequence (Q96SW2 whole entry): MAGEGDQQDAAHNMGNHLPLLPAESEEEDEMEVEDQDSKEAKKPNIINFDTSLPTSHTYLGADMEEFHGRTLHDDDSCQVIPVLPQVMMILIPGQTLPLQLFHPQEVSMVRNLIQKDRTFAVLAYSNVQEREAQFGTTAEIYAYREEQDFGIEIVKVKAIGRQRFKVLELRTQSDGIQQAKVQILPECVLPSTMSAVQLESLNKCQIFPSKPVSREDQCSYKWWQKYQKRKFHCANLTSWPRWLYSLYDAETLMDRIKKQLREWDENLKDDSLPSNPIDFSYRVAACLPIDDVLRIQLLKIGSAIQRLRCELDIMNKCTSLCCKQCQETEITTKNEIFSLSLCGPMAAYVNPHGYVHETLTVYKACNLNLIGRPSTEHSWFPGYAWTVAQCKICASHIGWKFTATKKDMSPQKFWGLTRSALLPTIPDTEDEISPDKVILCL
Sequence (Q16531 whole entry partner): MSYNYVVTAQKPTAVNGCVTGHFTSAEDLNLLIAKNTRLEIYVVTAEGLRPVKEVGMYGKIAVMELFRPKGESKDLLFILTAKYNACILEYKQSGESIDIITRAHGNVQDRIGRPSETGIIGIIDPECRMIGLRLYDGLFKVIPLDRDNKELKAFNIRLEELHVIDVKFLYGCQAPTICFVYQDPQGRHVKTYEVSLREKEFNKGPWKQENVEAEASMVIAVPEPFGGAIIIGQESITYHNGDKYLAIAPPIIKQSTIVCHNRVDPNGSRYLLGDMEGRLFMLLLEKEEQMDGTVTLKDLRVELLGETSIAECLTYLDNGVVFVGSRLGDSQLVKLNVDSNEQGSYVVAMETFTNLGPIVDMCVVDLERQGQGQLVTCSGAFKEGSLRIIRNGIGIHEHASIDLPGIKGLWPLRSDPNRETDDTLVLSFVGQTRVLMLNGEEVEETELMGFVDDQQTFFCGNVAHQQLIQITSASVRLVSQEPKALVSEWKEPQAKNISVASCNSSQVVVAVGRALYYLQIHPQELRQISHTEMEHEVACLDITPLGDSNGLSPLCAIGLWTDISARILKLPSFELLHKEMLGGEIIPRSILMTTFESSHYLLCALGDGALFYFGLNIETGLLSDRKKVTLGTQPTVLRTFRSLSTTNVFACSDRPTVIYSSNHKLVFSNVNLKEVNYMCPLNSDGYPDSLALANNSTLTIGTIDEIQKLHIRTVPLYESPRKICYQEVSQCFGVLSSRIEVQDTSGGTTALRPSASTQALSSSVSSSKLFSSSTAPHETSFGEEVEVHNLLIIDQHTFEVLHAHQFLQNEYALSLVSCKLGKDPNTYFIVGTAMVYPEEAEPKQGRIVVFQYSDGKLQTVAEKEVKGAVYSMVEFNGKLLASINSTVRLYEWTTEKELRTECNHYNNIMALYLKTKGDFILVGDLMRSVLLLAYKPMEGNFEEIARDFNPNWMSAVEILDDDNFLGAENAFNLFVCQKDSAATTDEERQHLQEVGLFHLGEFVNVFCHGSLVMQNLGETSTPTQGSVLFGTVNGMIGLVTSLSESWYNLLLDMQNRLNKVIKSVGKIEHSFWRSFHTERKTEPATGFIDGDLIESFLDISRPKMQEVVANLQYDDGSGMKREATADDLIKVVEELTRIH
Assay: Cellular degradation assay, eGFP-SALL4 ZnF1-2 fusion with mCherry reporter in Flp-In 293 cells
Assay type: cell-based
Conditions: compound concentration 2.00E−05; 5 h incubation; n=1
The compounds listed here are annotated with their SALL4 ZNF1-2 GFP/RFP Relative Abundance.
Write the value as a bare number.

> print(dat)
                                   compound  observed.measurement
1  Cc1ccc(NC(=O)Nc2cccc(NC3=CC(=O)N(C4CCC(=O)NC4=O)C3=O)c2)cc1Cl (stereo not shown) [Compound 43]                 1.072
2  CN(C)C(=O)Cc1cccc(NC2=CC(=O)N(C3CCC(=O)NC3=O)C2=O)c1 (stereo not shown) [Compound 35]                 0.928
3  O=C1CCC(N2C(=O)C=C(Nc3cccc(-c4nnn[nH]4)c3)C2=O)C(=O)N1 (stereo not shown) [Compound 23]                 0.922

Kindly review the next compound as well.
For this compound ( Cc1ccc(NC(=O)NCc2cccc(NC3=CC(=O)N(C4CCC(=O)NC4=O)C3=O)c2)cc1Cl (stereo not shown) [Compound 44] ), measured SALL4 ZNF1-2 GFP/RFP Relative Abundance is 0.888

###

Target: IKZF1 (Homo sapiens)
Construct: expressed in transfected cells; host or cells: Flp-In 293
Test: Cellular degradation assay, eGFP-IKZF1Δ fusion with mCherry reporter in Flp-In 293 cells
Format: cell-based
Conditions: compound concentration 2.00E−07; 5 h incubation; n=1
MEASUREMENT_LABEL: IKZF1 GFP/RFP Relative Abundance
The response must contain the number and no unit.

> print(dat)
                                   compound                 measurement.label  observed.measurement
1  Cc1ccc(NC(=O)NC(CC(=O)N(C)C)c2cccc(NC3=CC(=O)N(C4CCC(=O)NC4=O)C3=O)c2)cc1Cl (centres unmarked)  IKZF1 GFP/RFP Relative Abundance                 0.107
2  CN(C1=CC(=O)N(C2CCC(=O)NC2=O)C1=O)c1ccccc1 (centres unmarked)  IKZF1 GFP/RFP Relative Abundance                 1.029
3  Cc1ccc(NC(=O)Nc2ccc(NC3=CC(=O)N(C4CCC(=O)NC4=O)C3=O)cc2)cc1Cl (centres unmarked)  IKZF1 GFP/RFP Relative Abundance                 0.577
4  Cc1ccc(CNC(=O)Cc2cccc(NC3=CC(=O)N(C4CCC(=O)NC4=O)C3=O)c2)cc1Cl (centres unmarked)  IKZF1 GFP/RFP Relative Abundance                 0.092
5  CN(C)C(=O)Cc1cccc(NC2=CC(=O)N(C3CCC(=O)NC3=O)C2=O)c1 (centres unmarked)  IKZF1 GFP/RFP Relative Abundance                 0.182
6  Cc1ccc(NC(=O)c2cccc(NC3=CC(=O)N(C4CCC(=O)NC4=O)C3=O)c2)cc1Cl (centres unmarked)  IKZF1 GFP/RFP Relative Abundance                 0.314
7  Cc1ccc(NC(=O)N2CCc3ccc(NC4=CC(=O)N(C5CCC(=O)NC5=O)C4=O)cc3C2)cc1Cl (centres unmarked)  IKZF1 GFP/RFP Relative Abundance                 0.142

// next item, IKZF1 GFP/RFP Relative Abundance requested
# IKZF1 GFP/RFP Relative Abundance of Cc1ccc(NC(=O)NCCNC2=CC(=O)N(C3CCC(=O)NC3=O)C2=O)cc1Cl (centres unmarked) = 1.003

###

Target: IKZF1 (Homo sapiens, UniProt Q13422)
Construct: expressed in transfected cells; host or cells: Flp-In 293
Sequence (Q13422 83-213 isoform Q13422-7 limits assumed): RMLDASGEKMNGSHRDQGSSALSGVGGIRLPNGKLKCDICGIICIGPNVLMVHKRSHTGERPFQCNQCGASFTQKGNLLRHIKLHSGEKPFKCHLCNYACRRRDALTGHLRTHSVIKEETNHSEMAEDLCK
Sequence (Q96SW2 whole entry partner): as the sequence (Q96SW2 whole entry) above
Sequence (Q16531 2-1140 partner limits assumed): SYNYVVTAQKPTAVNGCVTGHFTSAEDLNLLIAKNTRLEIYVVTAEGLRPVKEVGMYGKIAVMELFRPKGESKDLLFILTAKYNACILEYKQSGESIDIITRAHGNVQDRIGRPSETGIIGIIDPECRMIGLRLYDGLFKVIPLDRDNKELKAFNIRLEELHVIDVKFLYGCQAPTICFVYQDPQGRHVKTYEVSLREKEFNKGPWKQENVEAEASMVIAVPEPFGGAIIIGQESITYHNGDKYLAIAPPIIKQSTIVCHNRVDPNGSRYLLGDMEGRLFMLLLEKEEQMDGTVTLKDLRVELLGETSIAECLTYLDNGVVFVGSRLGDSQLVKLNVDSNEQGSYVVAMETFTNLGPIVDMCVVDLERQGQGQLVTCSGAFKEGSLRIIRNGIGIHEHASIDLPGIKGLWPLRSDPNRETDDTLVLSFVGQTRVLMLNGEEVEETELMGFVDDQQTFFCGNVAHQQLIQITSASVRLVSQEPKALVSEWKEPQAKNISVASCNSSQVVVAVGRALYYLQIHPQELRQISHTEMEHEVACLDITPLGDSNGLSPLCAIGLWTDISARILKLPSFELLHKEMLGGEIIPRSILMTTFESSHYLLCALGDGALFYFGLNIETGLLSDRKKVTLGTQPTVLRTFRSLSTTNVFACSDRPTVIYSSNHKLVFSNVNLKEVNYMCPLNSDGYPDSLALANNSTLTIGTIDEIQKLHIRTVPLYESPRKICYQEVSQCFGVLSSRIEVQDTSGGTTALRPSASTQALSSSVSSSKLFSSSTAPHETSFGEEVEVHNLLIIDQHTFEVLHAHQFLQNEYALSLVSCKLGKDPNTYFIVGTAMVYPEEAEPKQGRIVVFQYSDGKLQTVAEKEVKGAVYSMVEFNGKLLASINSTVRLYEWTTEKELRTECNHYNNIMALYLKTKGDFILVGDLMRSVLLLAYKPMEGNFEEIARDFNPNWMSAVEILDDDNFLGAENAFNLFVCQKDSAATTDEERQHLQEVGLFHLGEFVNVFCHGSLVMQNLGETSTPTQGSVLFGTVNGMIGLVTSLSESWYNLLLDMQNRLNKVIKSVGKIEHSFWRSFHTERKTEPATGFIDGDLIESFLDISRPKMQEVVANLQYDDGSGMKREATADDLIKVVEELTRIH
Assay: Cellular degradation assay, eGFP-IKZF1Δ fusion with mCherry reporter in Flp-In 293 cells
Type: cell-based
Conditions: compound concentration 2.00E−07; 5 h incubation; n=1
Labelling: IKZF1 GFP/RFP Relative Abundance reported below 0.5 becomes 1; at or above becomes -1.

Illustrative cases are given below, each with its answer.
> print(dat)
                                   compound  assigned.class
1  O=C1CCC(N2C(=O)C=C(Nc3cccc(CNC(=O)NCc4ccccc4)c3)C2=O)C(=O)N1 (stereo not shown)               1
2  Cc1ccc(NC(=O)N[C@@H](C)c2cccc(NC3=CC(=O)N(C4CCC(=O)NC4=O)C3=O)c2)cc1Cl (stereo partly shown)               1
3  Cc1ccc(NC(=O)NCc2ccccc2NC2=CC(=O)N(C3CCC(=O)NC3=O)C2=O)cc1Cl (stereo not shown)              -1

I wonder whether Cc1ccc(NC(=O)N[C@H](C)c2cccc(NC3=CC(=O)N(C4CCC(=O)NC4=O)C3=O)c2)cc1Cl (stereo partly shown) has IKZF1 GFP/RFP Relative Abundance below 0.5. Can you tell? 1

Strictly below 0.5: is that where IKZF1 GFP/RFP Relative Abundance of Cc1ccc(NC(=O)NCc2cccc(NC3=CC(=O)N(C4CCC(=O)NC4=O)C3=O)c2)cc1C (stereo not shown) sits? 1

###

Target: GSPT1 (Homo sapiens, UniProt P15170+Q96SW2)
Sequence (P15170 whole entry, one chain of several, the tested form may be a part): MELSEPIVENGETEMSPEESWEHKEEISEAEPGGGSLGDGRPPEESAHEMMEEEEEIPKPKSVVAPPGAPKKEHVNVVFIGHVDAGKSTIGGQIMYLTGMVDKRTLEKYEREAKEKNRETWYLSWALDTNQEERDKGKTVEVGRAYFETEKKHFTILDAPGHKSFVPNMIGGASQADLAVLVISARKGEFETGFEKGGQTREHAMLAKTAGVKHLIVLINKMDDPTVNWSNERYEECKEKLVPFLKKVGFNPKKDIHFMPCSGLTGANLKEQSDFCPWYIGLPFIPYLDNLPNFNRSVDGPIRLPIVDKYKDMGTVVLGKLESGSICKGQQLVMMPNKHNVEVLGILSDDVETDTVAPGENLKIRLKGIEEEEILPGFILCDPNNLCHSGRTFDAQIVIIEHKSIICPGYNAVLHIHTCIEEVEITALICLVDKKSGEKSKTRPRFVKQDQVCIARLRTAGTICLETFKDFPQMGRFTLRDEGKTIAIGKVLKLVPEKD
Assay: Cellular degradation assay, eGFP-GSPT1 fusion with mCherry reporter in Flp-In 293 cells
Assay type: cell-based
Design: expressed in transfected cells; host or cells: Flp-In 293
Settings: compound concentration 2.00E−07; 5 h incubation; n=1
Reported GSPT1 GFP/RFP Relative Abundance values follow for various compounds
Provide a numeric answer; units are not to be included.

Below are worked cases with known answers.
> print(dat)
                                   compound                                       tgt  observed.measurement
1  COC(=O)CN(C)C1=CC(=O)N(C2CCC(=O)NC2=O)C1=O (centres unmarked)  GSPT1 (Homo sapiens, UniProt P15170+Q96SW2)                 1.043
2  O=C(Cc1ccc(Cl)c(Cl)c1)NCc1cccc(NC2=CC(=O)N(C3CCC(=O)NC3=O)C2=O)c1 (centres unmarked)  GSPT1 (Homo sapiens, UniProt P15170+Q96SW2)                 0.737

Notebook: O=C1CCC(N2C(=O)C=C(Nc3ccc(Cl)cc3)C2=O)C(=O)N1 (centres unmarked) , GSPT1 GFP/RFP Relative Abundance read as 1.201

# compound O=C1CCC(N2C(=O)C=C(Nc3ccccc3)C2=O)C(=O)N1 (centres unmarked) ; its GSPT1 GFP/RFP Relative Abundance = 0.930

The compound Cc1ccc(NC(=O)Oc2cccc(NC3=CC(=O)N(C4CCC(=O)NC4=O)C3=O)c2)cc1Cl (centres unmarked) showed GSPT1 GFP/RFP Relative Abundance equal to 0.775

For record Cc1ccc(NC(=O)Nc2cccc(NC3=CC(=O)N(C4CCC(=O)NC4=O)C3=O)c2)cc1C (centres unmarked) the listed GSPT1 GFP/RFP Relative Abundance is 0.180

Recorded GSPT1 GFP/RFP Relative Abundance (compound O=C1CCC(N2C(=O)C=C(Nc3cccc(-c4cc[nH]n4)c3)C2=O)C(=O)N1 (centres unmarked) ): 1.240

###

Target: CRBN and Helios (IKZF2) (Homo sapiens, UniProt Q96SW2+Q9UKS7)
Construct: His (N); Strep (N)
Sequence (Q96SW2 whole entry): as the sequence (Q96SW2 whole entry) above
Sequence (Q9UKS7 whole entry): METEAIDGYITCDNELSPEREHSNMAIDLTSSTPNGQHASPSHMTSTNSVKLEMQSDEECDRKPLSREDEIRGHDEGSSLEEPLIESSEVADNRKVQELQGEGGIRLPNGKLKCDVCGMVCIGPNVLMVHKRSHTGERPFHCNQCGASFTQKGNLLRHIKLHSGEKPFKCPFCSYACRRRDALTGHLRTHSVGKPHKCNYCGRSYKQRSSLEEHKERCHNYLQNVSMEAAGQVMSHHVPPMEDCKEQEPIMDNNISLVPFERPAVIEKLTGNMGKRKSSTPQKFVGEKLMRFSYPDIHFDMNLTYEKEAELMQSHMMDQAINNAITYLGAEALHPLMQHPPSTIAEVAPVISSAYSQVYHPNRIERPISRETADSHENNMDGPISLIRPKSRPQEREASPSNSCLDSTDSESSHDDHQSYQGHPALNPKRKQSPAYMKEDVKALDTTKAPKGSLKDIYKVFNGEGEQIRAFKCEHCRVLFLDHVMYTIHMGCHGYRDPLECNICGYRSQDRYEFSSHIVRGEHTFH
Experiment: TR-FRET dimerization assay (CRBN-IKZF2 ternary complex formation)
Assay type: binding
Conditions: compound concentration 6.6667E−07 (667 nM); n=1
Criterion: TR-FRET-IKZF2 (Normalized to CC-885) strictly under 1. Met: yes. Not met: no.

Solved entries:
> print(dat)
                                   compound  assigned.class
1  Cc1ccc(NC2=CC(=O)N(C3CCC(=O)NC3=O)C2=O)cc1C (stereo not shown) [Compound 24]             yes
2  Cc1ccc(N(C)C(=O)CCc2cccc(NC3=CC(=O)N(C4CCC(=O)NC4=O)C3=O)c2)cc1Cl (stereo not shown) [Compound 127]              no
3  Cc1ccc(NC(=O)NCCc2cccc(NC3=CC(=O)N(C4CCC(=O)NC4=O)C3=O)c2)cc1Cl (stereo not shown) [Compound 62]              no
4  Cc1ccc(NC(=O)CCc2cccc(NC3=CC(=O)N(C4CCC(=O)NC4=O)C3=O)c2)cc1Cl (stereo not shown) [Compound 53]              no
5  O=C1CCC(N2C(=O)C=C(Nc3cccc(CCC(=O)Nc4ccc(C(F)(F)F)c(Cl)c4)c3)C2=O)C(=O)N1 (stereo not shown) [Compound 129]              no
6  Cc1ccc(NC(=O)NC(CC(=O)N(C)C)c2cccc(NC3=CC(=O)N(C4CCC(=O)NC4=O)C3=O)c2)cc1Cl (stereo not shown) [Compound 76]              no
7  O=C1CCC(N2C(=O)C=C(Nc3cccc(-c4cc[nH]n4)c3)C2=O)C(=O)N1 (stereo not shown) [Compound 31]             yes
8  O=C(Cc1ccc(Cl)c(Cl)c1)NCc1cccc(NC2=CC(=O)N(C3CCC(=O)NC3=O)C2=O)c1 (stereo not shown) [Compound 61]              no

Would you kindly verify if TR-FRET-IKZF2 (Normalized to CC-885) of Cc1ccc(NC(=O)OCc2cccc(NC3=CC(=O)N(C4CCC(=O)NC4=O)C3=O)c2)cc1Cl (stereo not shown) [Compound 48] is strictly less than 1? yes
